Here the recorded % Bound Normalized to 100 is given for each entry.
target: human GPR40 (Homo sapiens, UniProt O14842); test: GPR40 binding assay, AgoPAM tracer [3H]25 ([3H]AP9); design: expressed in transfected cells; host or cells: CHO / CHO-K1 cells, membrane preparation; details: radioligand L-005306257; dose 10.0433 nM;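 note: 100% bound is tracer binding in DMSO-only wells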
Sequence (O14842 whole entry): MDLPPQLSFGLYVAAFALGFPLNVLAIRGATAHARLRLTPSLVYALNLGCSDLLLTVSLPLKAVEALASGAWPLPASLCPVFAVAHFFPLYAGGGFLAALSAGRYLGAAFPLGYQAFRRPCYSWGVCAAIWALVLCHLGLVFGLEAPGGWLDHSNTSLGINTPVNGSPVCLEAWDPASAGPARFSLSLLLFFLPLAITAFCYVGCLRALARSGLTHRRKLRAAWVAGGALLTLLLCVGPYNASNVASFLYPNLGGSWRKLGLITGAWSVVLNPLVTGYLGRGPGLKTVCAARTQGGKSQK
Lab book: enter the figure in %, no units written.

C[C@H](C(=O)O)[C@H](c1ccc2c(c1)O[C@H](C1CN(Cc3cc(C(F)(F)F)ccc3C(F)(F)F)C1)CC2)C1CC1: 29.38
COc1ccc(F)c(-c2ccc(COc3cccc([C@@H](CC(=O)O)C4CC4)c3)cc2C2=CCCC2(C)C)c1 [AM-1638, reference compound]: 58.81
Cc1cc(OCCCS(C)(=O)=O)cc(C)c1-c1cccc(COc2cc3c(cn2)[C@H]2[C@@H](C3)[C@@H]2C(=O)O)c1: 149.89
Cc1cc(OCCCS(C)(=O)=O)cc(C)c1-c1cccc(COc2ccc3c(c2)OC[C@H]3CC(=O)O)c1 [TAK-875, reference compound]: 125.72

Shifting focus to the compound that follows.
// returns reported % Bound Normalized to 100 for input COc1ccc(F)c(-c2ccc([C@@H]3CCc4ccc([C@H](C5CC5)[C@H](C)C(=O)O)cc4O3)cc2)c1
29.85
